- TEST NAME: Pharmacokinetics study in rats after oral administration of YDXNT (UPLC-QqQ-MS of plasma)
- CONDITION LABEL: male, Sprague-Dawley, rat, plasma, po, 4.8 g kg^−1 d^−1
READOUT TYPE: Cmax (ng/mL)

[
  {
    "COMPOUND": "Cc1coc2c1C(=O)C(=O)c1c-2ccc2c1CCCC2(C)C",
    "READOUT TYPE": "Cmax",
    "OBSERVED VALUE": 38.3
  },
  {
    "COMPOUND": "O=c1c(O)c(-c2ccc(O)c(O)c2)oc2cc(O)cc(O)c12",
    "READOUT TYPE": "Cmax",
    "OBSERVED VALUE": 45
  },
  {
    "COMPOUND": "CC(C)(C)[C@]1(O)CC2OC(=O)CC23C(=O)OC2OC(=O)[C@H](O)C231 (stereo partly shown) [BB, bilobalide]",
    "READOUT TYPE": "Cmax",
    "OBSERVED VALUE": 48.7
  },
  {
    "COMPOUND": "O=c1c(O)c(-c2ccc(O)cc2)oc2cc(O)cc(O)c12",
    "READOUT TYPE": "Cmax",
    "OBSERVED VALUE": 49.9
  }
]

* * *

- TEST NAME: Stability of the analytes in rat plasma QC samples (short-term, autosampler, freeze-thaw, long-term)
- CONDITION LABEL: 10 ng mL^−1, room temperature for 12 h in the autosampler after sample preparation, n = 6
Parameter: Autosampler stability Accuracy. Scope: all listed entries.
READOUT TYPE: Autosampler stability Accuracy (%)

[
  {
    "COMPOUND": "C[C@@H]1C(=O)O[C@H]2C[C@@]34[C@H]5C[C@@H](C(C)(C)C)[C@]36[C@@H](OC(=O)[C@@H]6O)O[C@@]4(C(=O)O5)[C@]21O [GA, ginkgolide A]",
    "READOUT TYPE": "Autosampler stability Accuracy",
    "OBSERVED VALUE": 98.33
  },
  {
    "COMPOUND": "COc1cc(-c2oc3cc(O)cc(O)c3c(=O)c2O)ccc1O [ISR, isorhamnetin]",
    "READOUT TYPE": "Autosampler stability Accuracy",
    "OBSERVED VALUE": 97.72
  },
  {
    "COMPOUND": "O=c1c(O)c(-c2ccc(O)c(O)c2)oc2cc(O)cc(O)c12 [QCT, quercetin]",
    "READOUT TYPE": "Autosampler stability Accuracy",
    "OBSERVED VALUE": 99.34
  },
  {
    "COMPOUND": "CC(C)(C)[C@]1(O)CC2OC(=O)CC23C(=O)OC2OC(=O)[C@H](O)C231 (stereo partly drawn) [BB, bilobalide]",
    "READOUT TYPE": "Autosampler stability Accuracy",
    "OBSERVED VALUE": 95.29
  },
  {
    "COMPOUND": "O=c1c(O)c(-c2ccc(O)cc2)oc2cc(O)cc(O)c12 [KMF, kaempferol]",
    "READOUT TYPE": "Autosampler stability Accuracy",
    "OBSERVED VALUE": 102.65
  },
  {
    "COMPOUND": "Cc1coc2c1C(=O)C(=O)c1c-2ccc2c1CCCC2(C)C [TSIIA, tanshinone IIA]",
    "READOUT TYPE": "Autosampler stability Accuracy",
    "OBSERVED VALUE": 95.96
  }
]

* * *

- TEST NAME: Stability of the analytes in rat plasma QC samples (short-term, autosampler, freeze-thaw, long-term)
- CONDITION LABEL: 100 ng mL^−1, -20°C for four weeks, n = 6
READOUT TYPE: Long-term stability Accuracy (%)

[
  {
    "COMPOUND": "O=c1c(O)c(-c2ccc(O)cc2)oc2cc(O)cc(O)c12 [KMF, kaempferol]",
    "READOUT TYPE": "Long-term stability Accuracy",
    "OBSERVED VALUE": 95.21
  },
  {
    "COMPOUND": "O=c1c(O)c(-c2ccc(O)c(O)c2)oc2cc(O)cc(O)c12 [QCT, quercetin]",
    "READOUT TYPE": "Long-term stability Accuracy",
    "OBSERVED VALUE": 93.17
  },
  {
    "COMPOUND": "COc1cc(-c2oc3cc(O)cc(O)c3c(=O)c2O)ccc1O [ISR, isorhamnetin]",
    "READOUT TYPE": "Long-term stability Accuracy",
    "OBSERVED VALUE": 95.76
  },
  {
    "COMPOUND": "CC(C)(C)[C@]1(O)CC2OC(=O)CC23C(=O)OC2OC(=O)[C@H](O)C231 (stereo partly drawn) [BB, bilobalide]",
    "READOUT TYPE": "Long-term stability Accuracy",
    "OBSERVED VALUE": 95.54
  },
  {
    "COMPOUND": "Cc1coc2c1C(=O)C(=O)c1c-2ccc2c1CCCC2(C)C [TSIIA, tanshinone IIA]",
    "READOUT TYPE": "Long-term stability Accuracy",
    "OBSERVED VALUE": 94.24
  },
  {
    "COMPOUND": "C[C@@H]1C(=O)O[C@H]2C[C@@]34[C@H]5C[C@@H](C(C)(C)C)[C@]36[C@@H](OC(=O)[C@@H]6O)O[C@@]4(C(=O)O5)[C@]21O [GA, ginkgolide A]",
    "READOUT TYPE": "Long-term stability Accuracy",
    "OBSERVED VALUE": 92.19
  }
]

* * *

- TEST NAME: Stability of the analytes in rat plasma QC samples (short-term, autosampler, freeze-thaw, long-term)
- CONDITION LABEL: 1 ng mL^−1, three freeze-thaw cycles -20°C to ambient temperature, n = 6
READOUT TYPE: Freeze–thaw strability (three cycles) Accuracy (%)

[
  {
    "MOLECULE": "O=c1c(O)c(-c2ccc(O)c(O)c2)oc2cc(O)cc(O)c12 [QCT, quercetin]",
    "OBSERVED VALUE": 98.27
  },
  {
    "MOLECULE": "Cc1coc2c1C(=O)C(=O)c1c-2ccc2c1CCCC2(C)C [TSIIA, tanshinone IIA]",
    "OBSERVED VALUE": 100.31
  },
  {
    "MOLECULE": "COc1cc(-c2oc3cc(O)cc(O)c3c(=O)c2O)ccc1O [ISR, isorhamnetin]",
    "OBSERVED VALUE": 103.15
  },
  {
    "MOLECULE": "O=c1c(O)c(-c2ccc(O)cc2)oc2cc(O)cc(O)c12 [KMF, kaempferol]",
    "OBSERVED VALUE": 101.23
  },
  {
    "MOLECULE": "C[C@@H]1C(=O)O[C@H]2C[C@@]34[C@H]5C[C@@H](C(C)(C)C)[C@]36[C@@H](OC(=O)[C@@H]6O)O[C@@]4(C(=O)O5)[C@]21O [GA, ginkgolide A]",
    "OBSERVED VALUE": 102.76
  },
  {
    "MOLECULE": "CC(C)(C)[C@]1(O)CC2OC(=O)CC23C(=O)OC2OC(=O)[C@H](O)C231 (stereo partly drawn) [BB, bilobalide]",
    "OBSERVED VALUE": 99.85
  }
]

* * *

- TEST NAME: Pharmacokinetics study in rats after oral administration of YDXNT (UPLC-QqQ-MS of plasma)
- CONDITION LABEL: male, Sprague-Dawley, rat, plasma, po, 4.8 g kg^−1 d^−1
Reported AUC(0-inf) values for a set of compounds

[
  {
    "COMPOUND": "O=c1c(O)c(-c2ccc(O)cc2)oc2cc(O)cc(O)c12",
    "AUC(0-inf), ng·h/mL": 539
  },
  {
    "COMPOUND": "CC(C)(C)[C@]1(O)CC2OC(=O)CC23C(=O)OC2OC(=O)[C@H](O)C231 (stereo partly shown) [BB, bilobalide]",
    "AUC(0-inf), ng·h/mL": 384
  },
  {
    "COMPOUND": "Cc1coc2c1C(=O)C(=O)c1c-2ccc2c1CCCC2(C)C",
    "AUC(0-inf), ng·h/mL": 183
  },
  {
    "COMPOUND": "O=c1c(O)c(-c2ccc(O)c(O)c2)oc2cc(O)cc(O)c12",
    "AUC(0-inf), ng·h/mL": 412
  }
]

* * *

- TEST NAME: Stability of the analytes in rat plasma QC samples (short-term, autosampler, freeze-thaw, long-term)
- CONDITION LABEL: 100 ng mL^−1, three freeze-thaw cycles -20°C to ambient temperature, n = 6
READOUT TYPE: Freeze–thaw strability (three cycles) Accuracy (%)

[
  {
    "COMPOUND": "COc1cc(-c2oc3cc(O)cc(O)c3c(=O)c2O)ccc1O",
    "READOUT UNITS": "%",
    "OBSERVED VALUE": 99.63
  },
  {
    "COMPOUND": "Cc1coc2c1C(=O)C(=O)c1c-2ccc2c1CCCC2(C)C",
    "READOUT UNITS": "%",
    "OBSERVED VALUE": 95.97
  },
  {
    "COMPOUND": "C[C@@H]1C(=O)O[C@H]2C[C@@]34[C@H]5C[C@@H](C(C)(C)C)[C@]36[C@@H](OC(=O)[C@@H]6O)O[C@@]4(C(=O)O5)[C@]21O [GA, ginkgolide A]",
    "READOUT UNITS": "%",
    "OBSERVED VALUE": 95.44
  },
  {
    "COMPOUND": "O=c1c(O)c(-c2ccc(O)c(O)c2)oc2cc(O)cc(O)c12",
    "READOUT UNITS": "%",
    "OBSERVED VALUE": 98.35
  },
  {
    "COMPOUND": "O=c1c(O)c(-c2ccc(O)cc2)oc2cc(O)cc(O)c12",
    "READOUT UNITS": "%",
    "OBSERVED VALUE": 94.24
  },
  {
    "COMPOUND": "CC(C)(C)[C@]1(O)CC2OC(=O)CC23C(=O)OC2OC(=O)[C@H](O)C231 (stereo partly drawn) [BB, bilobalide]",
    "READOUT UNITS": "%",
    "OBSERVED VALUE": 95.47
  }
]
